Please go through the items and note down their Ki.
Biological target: UniProt:Q9UKP6
Sequence (Q9UKP6 whole entry): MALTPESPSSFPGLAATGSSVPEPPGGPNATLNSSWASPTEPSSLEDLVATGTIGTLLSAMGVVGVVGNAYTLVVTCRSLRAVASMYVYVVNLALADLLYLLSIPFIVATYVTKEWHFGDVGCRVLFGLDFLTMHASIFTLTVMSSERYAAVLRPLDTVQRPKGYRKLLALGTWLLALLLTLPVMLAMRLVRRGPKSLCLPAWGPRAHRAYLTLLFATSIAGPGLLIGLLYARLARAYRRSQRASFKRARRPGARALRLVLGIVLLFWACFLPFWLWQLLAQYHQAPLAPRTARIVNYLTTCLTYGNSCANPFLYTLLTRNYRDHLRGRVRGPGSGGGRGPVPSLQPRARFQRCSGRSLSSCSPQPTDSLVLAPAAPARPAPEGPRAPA
Assay: Displacement of [I125]hU2 from human recombinant urotensin 2 receptor expressed in HEK293 cells
Give the number; µM is assumed, so skip it.

Tell me reported Ki for O=C(N[C@@H]1CCN(S(=O)(=O)c2ccc(OC3CCNCC3)c(Br)c2)C1)c1ccc(Cl)c(Cl)c1 , tested with UniProt:Q9UKP6.
0.38

API: value(readout= Ki, system= UniProt:Q9UKP6, query= O=C(N[C@H]1CCN(CCc2ccc(OC3CCNCC3)c(Cl)c2)C1)c1ccc(Cl)c(Cl)c1 )
0.015

Lab note: need Ki with UniProt:Q9UKP6 for entry O=C(NC1CCN(S(=O)(=O)c2ccc(OC3CCNCC3)c(Br)c2)CC1)c1ccc(Cl)c(Cl)c1 , please look it up.
0.14

# value lookup — system UniProt:Q9UKP6, readout Ki, item CN1CCC(Oc2ccc(CN3CCC(NC(=O)c4ccc(Cl)c(Cl)c4)C3)cc2)C1 (racemic)
0.097

Notebook: pull reported Ki for UniProt:Q9UKP6, entry O=C(N[C@H]1CCN(S(=O)(=O)c2ccc(OC3CCNCC3)c(Br)c2)C1)c1ccc(Cl)c(Cl)c1
0.12

Find Ki (UniProt:Q9UKP6) for the entry O=C(N[C@H]1CCN(Cc2ccc(OC3CCN(Cc4ccccc4)CC3)c(Br)c2)C1)c1ccc(Cl)c(Cl)c1
0.23

Query for UniProt:Q9UKP6: what Ki does the record show for CN(C)CCCOc1ccc(CN2CC[C@@H](NC(=O)c3ccc(Br)cc3)C2)cc1 ?
0.35

Could you share what Ki was measured for O=C(N[C@H]1CCN(CCc2ccc(OC3CCNCC3)c(Br)c2)C1)c1ccc(Cl)c(Cl)c1 , tested on UniProt:Q9UKP6?
0.01

// fetch UniProt:Q9UKP6 Ki for CN1CCC(Oc2ccc(CN3CC[C@H](NC(=O)c4ccc(Cl)c(Cl)c4)C3)cc2Cl)C1 (mixture of isomers)
0.047

Provide value of Ki for this record tested with UniProt:Q9UKP6: O=C(N[C@H]1CCN(Cc2ccc(OCCN3CCCC3)c(Br)c2)C1)c1ccc(Cl)c(Cl)c1
1

Lab note: need Ki with UniProt:Q9UKP6 for entry CC(C)C[C@H](NC(=O)c1cc2ccccc2s1)C(=O)N[C@H]1CCN(Cc2ccc(OC3CCNCC3)c(Br)c2)C1 , please look it up.
0.003

Report Ki for O=C(NC1CCCCN(S(=O)(=O)c2ccc(OC3CCNCC3)c(Br)c2)C1)c1ccc(Cl)c(Cl)c1 (racemic) tested on UniProt:Q9UKP6.
0.071

Provide the documented Ki with UniProt:Q9UKP6 as the system for CC(C)C[C@H](NC(=O)c1cc2ccccc2s1)C(=O)N[C@H]1CCN(CCc2ccc(O[C@@H]3CCNC3)c(Br)c2)C1
0.018

Form: Entry = CN(C)CCCOc1ccc(CN2CCC(NC(=O)c3ccc(Cl)c(Cl)c3)CC2)cc1 | System = UniProt:Q9UKP6 | Ki = ____
0.5

Reported Ki for UniProt:Q9UKP6, given O=C(N[C@H]1CCN(CCc2ccc(OC3CCNCC3)c(F)c2)C1)c1ccc(Cl)c(Cl)c1 ?
0.062

Record CN(C)CCCOc1ccc(CN2CC[C@H](NC(=O)c3ccc(Cl)c(Cl)c3)C2)cc1Br : what is its Ki with UniProt:Q9UKP6?
0.061

Query for UniProt:Q9UKP6: what Ki does the record show for CC(C)C[C@H](NC(=O)c1cc2ccccc2s1)C(=O)N[C@H]1CCN(S(=O)(=O)c2ccc(OC3CCNCC3)c(Br)c2)C1 ?
0.012

Missing value: Ki, UniProt:Q9UKP6, entry O=C(N[C@H]1CCN(Cc2ccc(OCCN3CCNCC3)c(Br)c2)C1)c1ccc(Cl)c(Cl)c1 . Fill in?
1.5

Any idea what Ki came out for O=C(N[C@H]1CCN(CCc2ccc(OC3CCNCC3)cc2)C1)c1ccc(Cl)c(Cl)c1 on UniProt:Q9UKP6?
0.042

Please tell me: Ki of O=C(N[C@H]1CCN(Cc2ccc(OC3CCNCC3)c(Br)c2)C1)c1ccc(Cl)c(Cl)c1 , system UniProt:Q9UKP6?
0.004

Report Ki for COc1cc(CCN2CC[C@H](NC(=O)c3ccc(Cl)c(Cl)c3)C2)ccc1OC1CCNCC1 tested on UniProt:Q9UKP6.
0.036

Request - read-out Ki | tested on UniProt:Q9UKP6 | compound CN1CCC(Oc2ccc(CN3CCC(NC(=O)c4ccc(Cl)c(Cl)c4)C3)cc2Br)C1 (racemic)
0.041

Value wanted: Ki (UniProt:Q9UKP6) of entry CN(C)CCCOc1ccc(CN2CC[C@H](NC(=O)c3ccc(Br)cc3)C2)cc1
0.32

What value of Ki on UniProt:Q9UKP6 does O=C(N[C@H]1CCN(Cc2ccc(O[C@@H]3CCNC3)c(Br)c2)C1)c1ccc(Cl)c(Cl)c1 have?
0.0055

Notebook: pull reported Ki for UniProt:Q9UKP6, entry CC(C)C[C@H](NC(=O)c1cc2ccccc2s1)C(=O)N[C@H]1CCN(Cc2ccc(OCCCN(C)C)cc2)C1
0.11

Lab note: need Ki for Cc1cc(CN2CC[C@H](NC(=O)c3ccc(Cl)c(Cl)c3)C2)ccc1OC1CCN(C)C1 (mixture of isomers) on UniProt:Q9UKP6, anyone have it?
0.108

Param readout= Ki; system= UniProt:Q9UKP6; entry= O=C(N[C@H]1CCN(CCc2ccc(OC3CCNCC3)c([N+](=O)[O-])c2)C1)c1ccc(Cl)c(Cl)c1 ; returns value.
0.069

// map O=C(N[C@H]1CCN(Cc2ccc(O[C@H]3CCNC3)c(Br)c2)C1)c1ccc(Cl)c(Cl)c1 to recorded Ki (system: UniProt:Q9UKP6)
0.044

Form: Entry = O=C(N[C@H]1CCN(Cc2ccc(OCCN3CCOCC3)c(Br)c2)C1)c1ccc(Cl)c(Cl)c1 | System = UniProt:Q9UKP6 | Ki = ____
3.5
